The values you see were collected from patent US20200102347A1.

study target: T1, NativeRPtag(large)_with_Tags_and_Cys (Thermoanaerobacter tengcongensis)
T1 construct: Unlabeled in anisotropy assays; coupled through the engineered N-terminal Cys to SulfoLink agarose or maleimide plates in column, pull-down and ELISA assays
T1 chain: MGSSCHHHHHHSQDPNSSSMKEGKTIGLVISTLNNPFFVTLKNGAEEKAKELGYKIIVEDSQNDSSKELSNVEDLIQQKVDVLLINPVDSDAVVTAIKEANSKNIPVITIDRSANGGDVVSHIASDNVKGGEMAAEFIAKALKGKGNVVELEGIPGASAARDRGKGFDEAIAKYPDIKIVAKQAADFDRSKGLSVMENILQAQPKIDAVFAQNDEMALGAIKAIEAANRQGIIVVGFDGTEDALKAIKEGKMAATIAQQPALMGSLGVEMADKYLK
experimental protocol: fluorescence anisotropy, association kinetics
No end group written: not given here. *: point of attachment. RhodamineB = CCN(CC)c1ccc2c(-c3ccccc3C(=O)*)c3ccc(=[N+](CC)CC)cc-3oc2c1
kr (S* to S) by entry:

• RhodamineB-KIANFIPAELKLITKE [RPtag(small) Nd2, Cd3, p5a] = 0.16 min⁻¹

Data request: Give the measured kr (S* to S) of RhodamineB-GEKIPNFIPAELKLITKENV [RPtag(small) Cd1] .
Data returned: 0.042 min⁻¹

Data request: Another binder to check: RhodamineB-GAKIPNFIPAELKLITKENVQ [RPtag(small) e2a]
Data returned: 0.044 min⁻¹

Data request: Also RhodamineB-PAELKLITKE [RPtag(small) Nd8, Cd3] ?
Data returned: 0.015 min⁻¹
